target.system: Serine racemase (Homo sapiens)
Sequence (Q9GZT4 whole entry): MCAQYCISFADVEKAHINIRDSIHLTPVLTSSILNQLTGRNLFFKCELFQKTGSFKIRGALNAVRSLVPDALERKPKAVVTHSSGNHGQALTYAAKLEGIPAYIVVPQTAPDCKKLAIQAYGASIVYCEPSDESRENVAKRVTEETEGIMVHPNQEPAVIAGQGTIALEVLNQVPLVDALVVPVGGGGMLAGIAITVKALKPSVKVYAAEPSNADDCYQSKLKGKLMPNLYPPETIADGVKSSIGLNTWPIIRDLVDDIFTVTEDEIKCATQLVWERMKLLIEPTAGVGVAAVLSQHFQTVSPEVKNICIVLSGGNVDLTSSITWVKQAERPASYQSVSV
metric: pIC50
Quick note: pIC50 means taking -log10 of the concentration in moles per liter.

Item: `O=C(O)[C@H]1C[C@H]1C(=O)O` | System: Serine racemase (Homo sapiens) | pIC50: 2.52
